Target: GLP-1R (Homo sapiens, UniProt P43220)
Construct: host or cells: GLP-1R CRE-bla CHO-K1 cells
Sequence (P43220 24-463): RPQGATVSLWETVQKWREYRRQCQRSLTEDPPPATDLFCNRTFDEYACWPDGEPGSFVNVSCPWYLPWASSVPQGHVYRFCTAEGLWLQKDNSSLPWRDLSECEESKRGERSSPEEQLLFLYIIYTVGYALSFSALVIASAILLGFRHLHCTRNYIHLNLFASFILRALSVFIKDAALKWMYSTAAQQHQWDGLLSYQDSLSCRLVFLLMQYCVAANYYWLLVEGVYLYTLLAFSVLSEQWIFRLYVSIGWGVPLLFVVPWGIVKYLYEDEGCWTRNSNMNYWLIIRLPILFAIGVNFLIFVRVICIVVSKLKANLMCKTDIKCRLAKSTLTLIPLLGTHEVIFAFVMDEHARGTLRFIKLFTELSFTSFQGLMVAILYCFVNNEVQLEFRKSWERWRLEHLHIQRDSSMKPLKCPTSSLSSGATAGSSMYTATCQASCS
Sequence (P01275 100-127 partner limits assumed): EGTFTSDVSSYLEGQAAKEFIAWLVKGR
Assay: EC20 GLP-1(9-36) PAM cAMP assay: dose response of compound in the presence of fixed concentration of GLP-1(9-36)
Format: cell-based
Details: dose response of compound in presence of fixed concentration of GLP-1(9-36), GLP-1R CRE-bla CHO-K1 cells, read-out: EC20 GLP-1(9-36) PAM EC50
The compounds listed here are annotated with their EC50.
metricName: EC50

- CCCCCCCOc1ccc(-c2cnc(-c3ccc(C[C@H](NC(=O)c4ccc(C(C)(C)C)s4)C(=O)N4CC(C)C(C(=O)O)C4)cc3)nc2)cc1 (some centres unmarked): 800 to 2500 nM
- CCCCCCCOc1ccc(-c2cnc(-c3ccc(C[C@H](NC(=O)c4ccc(C(C)(C)C)s4)C(=O)NCC4(O)CCN(C)C4)cc3)nc2)cc1 (some centres unmarked): 5000 to 10000 nM
- CCCCCCCOc1ccc(-c2cnc(-c3ccc(C[C@H](NC(=O)c4ccc(C(C)(C)C)s4)C(=O)N[C@@H](C(=O)O)[C@@H](C)CC)cc3)nc2)cc1: 800 to 2500 nM
- CCCCCCCOc1ccc(-c2cnc(-c3ccc(C[C@H](NC(=O)c4ccc(C(C)(C)C)s4)C(=O)N4CC[C@@H](N)C4)cc3)nc2)cc1: 5000 to 10000 nM
- C[C@@H](NC(=O)[C@H](Cc1ccc(-c2ncc(-c3ccc(-c4ccc(C(F)(F)F)cc4F)cc3)cn2)cc1)NC(=O)c1ccc(C(C)(C)C)s1)C(=O)O: < 800 nM
- CC(C)(C)COc1ccc(-c2cnc(-c3ccc(C[C@H](NC(=O)c4ccc(C(C)(C)C)cc4)C(=O)NCCC(=O)O)cc3)nc2)cc1: 5000 to 10000 nM
- Cc1cc(C)n(-c2ccc(-c3cnc(-c4ccc(C[C@H](NC(=O)c5ccc(C(C)(C)C)s5)C(=O)N[C@H](C)C(=O)O)cc4)nc3)cc2)n1: 800 to 2500 nM
- CC(C)CCSc1ccc(-c2cnc(-c3ccc(C[C@H](NC(=O)c4ccc(C(C)(C)C)cc4)C(=O)NCCC(=O)O)cc3)nc2)cc1: 5000 to 10000 nM
- CCCCCCCOc1ccc(-c2cnc(-c3ccc(C[C@H](NC(=O)c4ccc(C(C)(C)C)s4)C(=O)N4C5CCC4C(C(=O)O)C5)cc3)nc2)cc1 (some centres unmarked): 800 to 2500 nM
- CCCCCCCOc1ccc(-c2cnc(-c3ccc(C[C@H](NC(=O)c4ccc(C(C)C)cc4)C(=O)NC(C(=O)O)C(O)c4ccccc4)cc3)nc2)cc1 (some centres unmarked): 800 to 2500 nM
- CCCCCCCOc1ccc(-c2cnc(-c3ccc(C[C@H](NC(=O)c4ccc(C5CC5)cc4)C(=O)N4CC[C@H](C(=O)O)C4)cc3)nc2)cc1: 5000 to 10000 nM
- CC(C)(C)c1ccc(C(=O)N[C@@H](Cc2ccc(-c3ncc(-c4ccc(OC5CC5)cc4)cn3)cc2)C(=O)NC(C(=O)O)C(O)c2ccccc2)s1 (some centres unmarked): 5000 to 10000 nM
- CCCCOc1cccc(-c2noc(-c3cnc(-c4ccc(C[C@H](NC(=O)c5ccc(C(C)(C)C)cc5)C(=O)NCCC(=O)O)cc4)nc3)n2)c1: 800 to 2500 nM
- C[C@@H](NC(=O)[C@H](Cc1ccc(-c2ncc(-c3ccc(OCc4ccccc4)c(Cl)c3)cn2)cc1)NC(=O)c1ccc(C(C)(C)C)s1)C(=O)O: 2500 to 5000 nM
- CCCCCCCOc1ccc(-c2cnc(-c3ccc(C[C@H](NC(=O)c4ccc(C(C)(C)C)cc4OC)C(=O)NC(C(=O)O)C(O)c4ccccc4)cc3)nc2)cc1 (some centres unmarked): 2500 to 5000 nM
- CCCCCCCOc1ccc(-c2cnc(-c3ccc(C[C@H](NC(=O)c4ccc(C(C)(C)C)cc4)C(=O)NCC(Cc4ccc(O)cc4)C(=O)O)cc3)nc2)cc1 (some centres unmarked): < 800 nM
- CCCCCCCOc1ccc(-c2cnc(-c3ccc(C[C@H](NC(=O)c4ccc(C(C)(C)C)s4)C(=O)N4CCN(c5ncccn5)CC4)cc3)nc2)cc1: 2500 to 5000 nM
- CC(C)(C)c1ccc(COc2ccc(-c3cnc(-c4ccc(C[C@H](NC(=O)c5ccc(C(C)(C)C)cc5)C(=O)NCCC(=O)O)cc4)nc3)cc2)cc1: 800 to 2500 nM
- CCCCCCCOc1ccc(-c2cnc(-c3ccc(C[C@H](NC(=O)c4ccc(C(C)(C)C)s4)C(=O)N4CCC(C)(N)C4)cc3)nc2)cc1 (some centres unmarked): 5000 to 10000 nM
- CC(C)(C)c1ccc(C(=O)N[C@@H](Cc2ccc(-c3ncc(-c4nc(-c5cccc(Oc6ccccc6)c5)no4)cn3)cc2)C(=O)NCCC(=O)O)cc1: 800 to 2500 nM
- Cc1ccc(-c2ccc(-c3cnc(-c4ccc(C[C@H](NC(=O)c5ccc(C(C)(C)C)s5)C(=O)N[C@H](C)C(=O)O)cc4)nc3)cc2)c(F)c1: < 800 nM
- CCCCCCCCc1noc(-c2cnc(-c3ccc(C[C@H](NC(=O)c4ccc(C(C)(C)C)cc4)C(=O)NCCC(=O)O)cc3)nc2)n1: 2500 to 5000 nM
- C[C@@H](NC(=O)[C@H](Cc1ccc(-c2ncc(-c3ccc([C@H]4CC[C@@H](C(C)(C)C)CC4)cc3)cn2)cc1)NC(=O)c1ccc(C(C)(C)C)s1)C(=O)O: 800 to 2500 nM
